Where do the numbers come from? From paper PMC12136037.

Biological target: ~100 representative kinases (Homo sapiens, UniProt Q6PHR2)
Construct: Recombinant protein kinase domains with a concentration of 2 μM
Sequence (Q6PHR2 whole entry, the tested form may be a part): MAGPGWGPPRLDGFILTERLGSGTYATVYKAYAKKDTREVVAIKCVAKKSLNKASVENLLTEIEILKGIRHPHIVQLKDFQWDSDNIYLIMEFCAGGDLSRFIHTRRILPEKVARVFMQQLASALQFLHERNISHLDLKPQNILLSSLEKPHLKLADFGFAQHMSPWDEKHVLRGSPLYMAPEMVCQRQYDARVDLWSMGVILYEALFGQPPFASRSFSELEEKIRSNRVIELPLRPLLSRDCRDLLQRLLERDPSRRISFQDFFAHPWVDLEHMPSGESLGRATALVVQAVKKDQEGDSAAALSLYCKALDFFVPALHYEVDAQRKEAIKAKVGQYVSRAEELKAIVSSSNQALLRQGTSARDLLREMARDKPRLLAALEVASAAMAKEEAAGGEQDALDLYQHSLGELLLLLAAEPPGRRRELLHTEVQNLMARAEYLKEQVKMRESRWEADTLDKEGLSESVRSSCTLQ
Experiment: DSF 100 kinase selectivity screen;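 further: compound tested at 20 µM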
Format: binding
Conditions: Protein ULK3; DSF; average of three replicates
quantity.measured: log10(dTm) (log10 of the value in K)
Heads up, the numbers here are log10 of dTm in K units.

Measured on ~100 representative kinases (Homo sapiens, UniProt Q6PHR2), CCNc1nc(Nc2cc(F)c(C(=O)N3CCOCC3)cc2OC)ncc1C(F)(F)F has a documented log10(dTm) of 0.25

Measured on ~100 representative kinases (Homo sapiens, UniProt Q6PHR2), O=C(Nc1cccc(-c2c[nH]c3ncnc(N4CCOCC4)c23)c1)C1(C(=O)Nc2cccc3c2CCC3)CC1 has a documented log10(dTm) of 0.76

Measured on ~100 representative kinases (Homo sapiens, UniProt Q6PHR2), Cc1cc(NC(=O)C2(C(=O)Nc3cccc(-c4c[nH]c5ncnc(N6CCOCC6)c45)c3)CC2)ccc1F has a documented log10(dTm) of 1.01

Measured on ~100 representative kinases (Homo sapiens, UniProt Q6PHR2), CNC(=O)c1cc(Oc2ccc(NC(=O)Nc3cc(C(C)(C)C)nn3-c3ccc4ncccc4c3)c(F)c2)ccn1 [Rebastinib, reference compound] has a documented log10(dTm) of 0.58

Measured on ~100 representative kinases (Homo sapiens, UniProt Q6PHR2), O=C(Nc1ccc(Cl)cc1)C1(C(=O)Nc2cccc(-c3c[nH]c4ncnc(N5CCOCC5)c34)c2)CC1 has a documented log10(dTm) of 1.00

Measured on ~100 representative kinases (Homo sapiens, UniProt Q6PHR2), CC(C)(C)c1cc(NC(=O)Nc2cccc(-c3c[nH]c4ncnc(N5CCOCC5)c34)c2)n(-c2ccc3ncccc3c2)n1 has a documented log10(dTm) of 0.85

Measured on ~100 representative kinases (Homo sapiens, UniProt Q6PHR2), C[C@@H]1CN(c2cc(-c3n[nH]c4ccc(OC5(C)CC5)cc34)ncn2)C[C@H](C)O1 has a documented log10(dTm) of -0.72

Measured on ~100 representative kinases (Homo sapiens, UniProt Q6PHR2), Cc1ccc(-n2nc(C(C)(C)C)cc2NC(=O)Nc2cccc(-c3c[nH]c4ncnc(N5CCOCC5)c34)c2)cc1 has a documented log10(dTm) of 0.87

Measured on ~100 representative kinases (Homo sapiens, UniProt Q6PHR2), CC(C)(C)c1cccc(NC(=O)C2(C(=O)Nc3cccc(-c4c[nH]c5ncnc(N6CCOCC6)c45)c3)CC2)c1 has a documented log10(dTm) of 1.06

Measured on ~100 representative kinases (Homo sapiens, UniProt Q6PHR2), COc1cc(S(C)(=O)=O)ccc1Nc1nc(N(C)C)c2c(Cl)c[nH]c2n1 has a documented log10(dTm) of 0.00

Measured on ~100 representative kinases (Homo sapiens, UniProt Q6PHR2), O=C(Nc1cccc(-c2c[nH]c3ncnc(N4CCOCC4)c23)c1)C1(C(=O)Nc2ccc(F)cc2F)CC1 has a documented log10(dTm) of 0.93

Measured on ~100 representative kinases (Homo sapiens, UniProt Q6PHR2), O=C(Nc1ccccc1)C1(C(=O)Nc2cccc(-c3c[nH]c4ncnc(N5CCOCC5)c34)c2)CC1 has a documented log10(dTm) of 0.89

Measured on ~100 representative kinases (Homo sapiens, UniProt Q6PHR2), COc1ccc(NC(=O)C2(C(=O)Nc3cccc(-c4c[nH]c5ncnc(N6CCOCC6)c45)c3)CC2)cc1 has a documented log10(dTm) of 0.72

Measured on ~100 representative kinases (Homo sapiens, UniProt Q6PHR2), COc1cc(NC(=O)C2(C(=O)Nc3cccc(-c4c[nH]c5ncnc(N6CCOCC6)c45)c3)CC2)ccc1F has a documented log10(dTm) of 0.91

Measured on ~100 representative kinases (Homo sapiens, UniProt Q6PHR2), O=C(Nc1cc(F)cc(Br)c1)C1(C(=O)Nc2cccc(-c3c[nH]c4ncnc(N5CCOCC5)c34)c2)CC1 has a documented log10(dTm) of 0.87

Measured on ~100 representative kinases (Homo sapiens, UniProt Q6PHR2), O=C(Nc1ccc(F)cc1)C1(C(=O)Nc2cccc(-c3c[nH]c4ncnc(N5CCOCC5)c34)c2)CC1 has a documented log10(dTm) of 0.87

Measured on ~100 representative kinases (Homo sapiens, UniProt Q6PHR2), Cn1cc(-c2c[nH]c3ncnc(N4CCOCC4)c23)cc1C#N has a documented log10(dTm) of 0.72

Measured on ~100 representative kinases (Homo sapiens, UniProt Q6PHR2), COc1cc(C(=O)N2CCOCC2)c(F)cc1Nc1nc(N(C)C)c2c(Cl)c[nH]c2n1 has a documented log10(dTm) of 0.61

Measured on ~100 representative kinases (Homo sapiens, UniProt Q6PHR2), O=C(Nc1cccc(-c2c[nH]c3ncnc(N4CCOCC4)c23)c1)C1(C(=O)Nc2cc(Br)c(F)cc2F)CC1 has a documented log10(dTm) of 0.97

====

Provide the reported dTm of each item.
Biological target: ~100 representative kinases (Homo sapiens, UniProt P22607)
Construct: Recombinant protein kinase domains with a concentration of 2 μM
Sequence (P22607 23-806): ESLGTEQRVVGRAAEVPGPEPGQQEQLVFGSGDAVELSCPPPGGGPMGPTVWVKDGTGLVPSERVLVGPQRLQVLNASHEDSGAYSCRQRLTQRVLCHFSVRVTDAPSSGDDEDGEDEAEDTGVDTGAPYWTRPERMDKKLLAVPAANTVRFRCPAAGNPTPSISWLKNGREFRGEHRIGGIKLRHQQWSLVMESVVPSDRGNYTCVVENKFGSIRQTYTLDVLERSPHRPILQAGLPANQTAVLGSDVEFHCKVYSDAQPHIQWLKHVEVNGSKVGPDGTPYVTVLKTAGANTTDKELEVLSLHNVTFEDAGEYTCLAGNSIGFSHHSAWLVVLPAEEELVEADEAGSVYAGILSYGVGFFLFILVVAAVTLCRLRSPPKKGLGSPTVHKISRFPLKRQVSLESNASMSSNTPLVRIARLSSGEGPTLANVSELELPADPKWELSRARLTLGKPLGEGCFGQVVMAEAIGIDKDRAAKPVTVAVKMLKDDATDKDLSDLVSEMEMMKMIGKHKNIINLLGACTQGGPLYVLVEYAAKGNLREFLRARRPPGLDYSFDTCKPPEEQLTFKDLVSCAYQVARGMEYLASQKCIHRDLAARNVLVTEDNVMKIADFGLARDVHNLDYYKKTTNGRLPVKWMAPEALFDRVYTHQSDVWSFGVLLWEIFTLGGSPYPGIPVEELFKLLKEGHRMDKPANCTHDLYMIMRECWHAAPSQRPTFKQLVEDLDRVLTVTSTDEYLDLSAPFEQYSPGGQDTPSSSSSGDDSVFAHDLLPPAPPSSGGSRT
Test: DSF 100 kinase selectivity screen;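 further: compound tested at 20 µM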
Format: binding
Conditions: protein FGFR3; average of three replicates
Numbers only here, please. The scale is K.

Entry Cc1cc(NC(=O)C2(C(=O)Nc3ccc(F)cc3)CC2)cc(-c2c[nH]c3ncnc(N4CCOCC4)c23)c1 , dTm reported as 1.74

Entry C[C@@H]1CN(c2cc(-c3n[nH]c4ccc(OC5(C)CC5)cc34)ncn2)C[C@H](C)O1 , dTm reported as 0.31

Entry O=C(Nc1cc(F)cc(Br)c1)C1(C(=O)Nc2cccc(-c3c[nH]c4ncnc(N5CCOCC5)c34)c2)CC1 , dTm reported as 2.07

Entry O=C(Nc1cccc(-c2c[nH]c3ncnc(N4CCOCC4)c23)c1)C1(C(=O)Nc2cc(Br)c(F)cc2F)CC1 , dTm reported as 2.90

Entry O=C(Nc1cccc(-c2c[nH]c3ncnc(N4CCOCC4)c23)c1)C1(C(=O)Nc2ccc(F)c(Br)c2F)CC1 , dTm reported as 3.36

Entry Cc1ccc(C(=O)Nc2ccc(CN3CCN(C)CC3)c(C(F)(F)F)c2)cc1C#Cc1cnc2[nH]ncc2c1 [GZD-824, reference compound] , dTm reported as 14.11

====

Target: ~100 representative kinases (Homo sapiens)
Construct: Recombinant protein kinase domains with a concentration of 2 μM
Assay: DSF 100 kinase selectivity screen;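 further: compound tested at 20 µM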
Type: binding
Conditions: Protein DCAMKL1; average of three replicates
quantity.measured: dTm (K)
Numbers only here, please. The scale is K.

Entry CCNc1nc(Nc2cc(F)c(C(=O)N3CCOCC3)cc2OC)ncc1C(F)(F)F [GNE-7915] , dTm reported as 2.14

Entry O=C(Nc1cccc(-c2c[nH]c3ncnc(N4CCOCC4)c23)c1)C1(C(=O)Nc2ccc(F)c(Br)c2)CC1 [Compound 19] , dTm reported as 4.80

Entry CCc1ccc(NC(=O)C2(C(=O)Nc3cccc(-c4c[nH]c5ncnc(N6CCOCC6)c45)c3)CC2)cc1 [Compound 15] , dTm reported as 0.05

Entry O=C(Nc1cccc(-c2c[nH]c3ncnc(N4CCOCC4)c23)c1)C1(C(=O)Nc2ccc(F)c(F)c2)CC1 [Compound 17] , dTm reported as 1.90

Entry COc1cc(S(C)(=O)=O)ccc1Nc1nc(N(C)C)c2c(Cl)c[nH]c2n1 [Compound 37] , dTm reported as -0.34

Entry Cc1ccc(C(=O)Nc2ccc(CN3CCN(C)CC3)c(C(F)(F)F)c2)cc1C#Cc1cnc2[nH]ncc2c1 [GZD-824, reference compound] , dTm reported as 0.30

Entry Cn1cc(-c2c[nH]c3ncnc(N4CCOCC4)c23)cc1C#N [PFE-360] , dTm reported as 0.62

Entry O=C(Nc1ccc(Cl)cc1)C1(C(=O)Nc2cccc(-c3c[nH]c4ncnc(N5CCOCC5)c34)c2)CC1 [Compound 13] , dTm reported as 2.89

Entry CC(=O)N1CCN(c2nc(Cl)nc3[nH]cc(-c4cccc(NC(=O)Nc5cc(C(C)(C)C)nn5-c5ccc(C)cc5)c4)c23)CC1 [Compound 31] , dTm reported as 2.11

Entry C[C@@H]1CN(c2cc(-c3n[nH]c4ccc(OC5(C)CC5)cc34)ncn2)C[C@H](C)O1 [MLi2] , dTm reported as 0.51

Entry CCSc1nc(NC)c2c(-c3cccc(NC(=O)Nc4cc(C(C)(C)C)nn4-c4ccc(C)cc4)c3)c[nH]c2n1 [Compound 32] , dTm reported as 0.67

Entry COc1cc2c(Oc3ccc(NC(=O)C4(C(=O)Nc5ccc(F)cc5)CC4)cc3F)ccnc2cc1OCCCN1CCOCC1 [Foretinib, reference compound] , dTm reported as 0.55

Entry CC(C)(C)c1cccc(NC(=O)C2(C(=O)Nc3cccc(-c4c[nH]c5ncnc(N6CCOCC6)c45)c3)CC2)c1 [Compound 22] , dTm reported as 3.75

Entry O=C(Nc1cccc(-c2c[nH]c3ncnc(N4CCOCC4)c23)c1)C1(C(=O)Nc2cccc3c2CCC3)CC1 [Compound 11] , dTm reported as 2.70

Entry O=C(Nc1ccc(F)cc1)C1(C(=O)Nc2cccc(-c3c[nH]c4ncnc(N5CCOCC5)c34)c2)CC1 [Compound 2] , dTm reported as 1.25

Entry CN[C@@H]1C[C@H]2O[C@@](C)([C@@H]1OC)n1c3ccccc3c3c4c(c5c6ccccc6n2c5c31)C(=O)NC4 [Staurosporine] , dTm reported as 12.74

Entry Cc1ccc(-n2nc(C(C)(C)C)cc2NC(=O)Nc2cccc(-c3c[nH]c4ncnc(N5CCOCC5)c34)c2)cc1 [Compound 29] , dTm reported as 2.98

Entry Cc1cc(NC(=O)C2(C(=O)Nc3ccc(F)cc3)CC2)cc(-c2c[nH]c3ncnc(N4CCOCC4)c23)c1 [Compound 6] , dTm reported as 3.01

Entry O=C(Nc1cccc(-c2c[nH]c3ncnc(N4CCOCC4)c23)c1)C1(C(=O)Nc2cc(Br)c(F)cc2F)CC1 [Compound 25] , dTm reported as 3.61

Entry Cc1cc(NC(=O)C2(C(=O)Nc3cccc(-c4c[nH]c5ncnc(N6CCOCC6)c45)c3)CC2)ccc1F [Compound 20] , dTm reported as 2.29

Entry COc1ccc(NC(=O)C2(C(=O)Nc3cccc(-c4c[nH]c5ncnc(N6CCOCC6)c45)c3)CC2)cc1 [Compound 16] , dTm reported as -1.88

Entry COc1cc(NC(=O)C2(C(=O)Nc3cccc(-c4c[nH]c5ncnc(N6CCOCC6)c45)c3)CC2)ccc1F [Compound 21] , dTm reported as 1.25

Entry O=C(Nc1cc(F)cc(Br)c1)C1(C(=O)Nc2cccc(-c3c[nH]c4ncnc(N5CCOCC5)c34)c2)CC1 [Compound 27] , dTm reported as 4.07

Entry Cc1ccc(NC(=O)C2(C(=O)Nc3cccc(-c4c[nH]c5ncnc(N6CCOCC6)c45)c3)CC2)cc1 [Compound 14] , dTm reported as -0.07

Entry Cc1ccc(-n2nc(C(C)(C)C)cc2NC(=O)Nc2cccc(-c3c[nH]c4nc(Cl)nc(N5CCOCC5)c34)c2)cc1 [Compound 30] , dTm reported as 2.36

Entry Cc1ccc(C(=O)Nc2ccc(CN3CCN(C)CC3)c(C(F)(F)F)c2)cc1C#Cc1c[nH]c2ncnc(N3CCOCC3)c12 [Compound 1] , dTm reported as -0.0556

Entry O=C(Nc1ccccc1)C1(C(=O)Nc2cccc(-c3c[nH]c4ncnc(N5CCOCC5)c34)c2)CC1 [Compound 12] , dTm reported as 0.95

Entry O=C(Nc1cccc(-c2c[nH]c3ncnc(N4CCOCC4)c23)c1)c1cccn(-c2ccc(F)cc2)c1=O [Compound 4] , dTm reported as 0.57
